Where do these numbers come from? They come from PubChem BioAssay AID1963875.

Test system: KRAS-mutant PDC complex spheroid viability;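 further: viability read after seven days of compound exposure; 100% = DMSO vehicle-treated spheroids so lower means less viable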
measurement_protocol: Anticancer human tumor 186277-243-T-J2-PDC patient-derived colon adenocarcinoma cell line growth inhibition [KRAS2]
experimental_context: second compound 3.16 µM; first compound 1 µM; stronger effect = lower value
assay_readout: viability, T/C (%)
Write the number in % without appending the unit.

Here is how some compounds turned out for viability, T/C.
Task: Retrieve viability, T/C measured for O=C(c1cc(Cc2n[nH]c(=O)c3ccccc23)ccc1F)N1CCN(C(=O)C2CC2)CC1 + CNCc1ccccc1-c1csc(C(C)Nc2nc(C)nc3cc(OC)c(OC)cc23)c1 and print it.
Output: 16.2

Task: Retrieve viability, T/C measured for CC(C)NCC(C(=O)N1CCN(c2ncnc3c2C(C)CC3O)CC1)c1ccc(Cl)cc1 (stereo not given) + C=CC(=O)N1CCN(c2nc(OCC3CCCN3C)nc3c2CCN(c2cccc4cccc(C)c24)C3)CC1CC#N and print it.
Output: 0.13

Task: Retrieve viability, T/C measured for CC1(C)CCC(CN2CCN(c3ccc(C(=O)NS(=O)(=O)c4ccc(NCC5CCOCC5)c([N+](=O)[O-])c4)c(Oc4cnc5[nH]ccc5c4)c3)CC2)=C(c2ccc(Cl)cc2)C1 + CC1OCC2(CCN(c3cnc(Sc4ccnc(N)c4Cl)c(N)n3)CC2)C1N and print it.
Output: 93.8

Task: Retrieve viability, T/C measured for COc1cc2nccc(Oc3ccc(NC(=O)C4(C(=O)Nc5ccc(F)cc5)CC4)cc3)c2cc1OC + C=CC(=O)N1CCN(c2nc(OCC3CCCN3C)nc3c2CCN(c2cccc4cccc(C)c24)C3)CC1CC#N and print it.
Output: 0.21

Task: Retrieve viability, T/C measured for CC(=O)OC12COC1CC(O)C1(C)C(=O)C(O)C3=C(C)C(OC(=O)C(O)C(NC(=O)OC(C)(C)C)c4ccccc4)CC(O)(C(OC(=O)c4ccccc4)C21)C3(C)C (stereo not given) + CC1OCC2(CCN(c3cnc(Sc4ccnc(N)c4Cl)c(N)n3)CC2)C1N and print it.
Output: 1.81

New cases:
Task: Retrieve viability, T/C measured for Cn1nccc1Nc1nccc(-c2cc3c(s2)C(C)(C)N(CCN2CCOCC2)C3=O)n1 + C=CC(=O)N1CCN(c2nc(OCC3CCCN3C)nc3c2CCN(c2cccc4cccc(C)c24)C3)CC1CC#N and print it.
Output: 0.51

Task: Retrieve viability, T/C measured for CC1COCCN1c1cc(-c2ccnn2C)c2ccnc(-c3ccn[nH]3)c2n1 (stereo not given) + C=CC(=O)N1CCN(c2nc(OCC3CCCN3C)nc3c2CCN(c2cccc4cccc(C)c24)C3)CC1CC#N and print it.
Output: 0.61

Task: Retrieve viability, T/C measured for CC(C)NCC(C(=O)N1CCN(c2ncnc3c2C(C)CC3O)CC1)c1ccc(Cl)cc1 (stereo not given) + CNCc1ccccc1-c1csc(C(C)Nc2nc(C)nc3cc(OC)c(OC)cc23)c1 and print it.
Output: 1.02

Task: Retrieve viability, T/C measured for CC(C)NCC(C(=O)N1CCN(c2ncnc3c2C(C)CC3O)CC1)c1ccc(Cl)cc1 (stereo not given) + C=CC(=O)N1CCN(c2nc(=O)n(-c3c(C)ccnc3C(C)C)c3nc(-c4c(O)cccc4F)c(F)cc23)C(C)C1 and print it.
Output: 25.7

Task: Retrieve viability, T/C measured for CC(=O)OC12COC1CC(O)C1(C)C(=O)C(O)C3=C(C)C(OC(=O)C(O)C(NC(=O)OC(C)(C)C)c4ccccc4)CC(O)(C(OC(=O)c4ccccc4)C21)C3(C)C (stereo not given) + C=CC(=O)N1CCN(c2nc(OCC3CCCN3C)nc3c2CCN(c2cccc4cccc(C)c24)C3)CC1CC#N and print it.
Output: 3.28
